Target: T1, EsCas13d, nuclease-dead (Eubacterium siraeum, UniProt B0MS50, R295A;H300A;R849A;H854A)
T1 sequence: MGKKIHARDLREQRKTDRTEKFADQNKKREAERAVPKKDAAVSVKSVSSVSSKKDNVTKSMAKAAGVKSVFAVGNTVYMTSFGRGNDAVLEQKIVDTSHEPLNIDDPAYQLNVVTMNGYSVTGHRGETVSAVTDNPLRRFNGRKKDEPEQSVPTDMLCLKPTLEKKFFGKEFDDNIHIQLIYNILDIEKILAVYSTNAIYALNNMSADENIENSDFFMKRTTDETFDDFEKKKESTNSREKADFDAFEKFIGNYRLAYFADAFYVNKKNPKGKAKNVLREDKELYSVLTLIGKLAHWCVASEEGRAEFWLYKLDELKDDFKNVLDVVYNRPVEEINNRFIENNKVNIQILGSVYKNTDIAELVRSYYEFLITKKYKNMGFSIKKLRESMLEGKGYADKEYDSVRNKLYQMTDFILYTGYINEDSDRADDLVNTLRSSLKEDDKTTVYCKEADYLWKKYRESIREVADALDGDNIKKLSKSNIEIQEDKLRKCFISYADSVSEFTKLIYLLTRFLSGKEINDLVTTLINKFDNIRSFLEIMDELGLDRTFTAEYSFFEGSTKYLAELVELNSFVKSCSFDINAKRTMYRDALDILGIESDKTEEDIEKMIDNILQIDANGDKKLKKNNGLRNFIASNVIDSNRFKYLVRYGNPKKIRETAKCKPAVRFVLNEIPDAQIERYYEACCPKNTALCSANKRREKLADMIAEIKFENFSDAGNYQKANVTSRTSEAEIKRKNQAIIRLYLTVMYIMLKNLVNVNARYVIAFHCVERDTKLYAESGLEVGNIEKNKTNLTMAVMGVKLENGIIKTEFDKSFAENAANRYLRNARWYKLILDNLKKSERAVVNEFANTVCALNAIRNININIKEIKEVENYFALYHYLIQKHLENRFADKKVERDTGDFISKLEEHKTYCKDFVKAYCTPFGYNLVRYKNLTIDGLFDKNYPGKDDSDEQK
Experiment: crRNA (strand 1, pre-loaded); Mg2+; 40 mM Tris-HCl pH 7.5, 150 mM NaCl, 6 mM MgCl2, 1 mM DTT, 0.1% Tween-20, 0.2 mg/ml BSA; 25 C; 10 min per concentration, then washed
Settings: tags: His6-TwinStrep-SUMO cleaved; N-terminal SNAP kept (SNAP-Surface 488); label: 3' end held by stalled T7 RNA polymerase
readout_type: pKd
In plain terms, pKd is the concentration in mol/L turned into minus its base-10 logarithm.

Some entries whose results are on file:
binder	pKd
target 1 MT 5'PFS GUA 3'PFS ACU (mixed) RNA 1: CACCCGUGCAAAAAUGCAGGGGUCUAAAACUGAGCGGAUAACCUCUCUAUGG RNA 2: GGGAAUGGAUCCACAUCUACGAAUUCGUACCAUAGAGAGGUUAUCCGCUCAACUAGAUCGGAAGAGCACACGU	7.97
target 2 MT 5'PFS AUA 3'PFS ACU (mixed) RNA 1: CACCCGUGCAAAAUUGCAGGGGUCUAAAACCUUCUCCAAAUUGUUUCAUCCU RNA 2: GGGAAUGGAUCCACAUCUACGAAUUCAUAAGGAUGAAACAAUUUGGAGAAGACUAGAUCGGAAGAGCACACGU	7.97

Name the recorded pKd of the binder listed here: target 1 MT 5'PFS UUA 3'PFS CUG (mixed) RNA 1: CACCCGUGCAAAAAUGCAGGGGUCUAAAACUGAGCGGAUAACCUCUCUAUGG RNA 2: GGGAAUGGAUCCACAUCUACGAAUUCUUACCAUAGAGAGGUUAUCCGCUCACUGAGAUCGGAAGAGCACACGU
7.83

Name the recorded pKd of the binder listed here: target 1 insA 3' of 10,insC 3' of 3 (mixed) RNA 1: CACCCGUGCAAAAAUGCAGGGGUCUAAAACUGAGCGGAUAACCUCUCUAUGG RNA 2: GGGAAUGGAUCCACAUCUACGAAUUCGUACCAUAGAGAGGUUAAUCCGCUCCACCGAGAUCGGAAGAGCACACGU
7.99

Name the recorded pKd of the binder listed here: target 1 insC 3' of 20,insA 3' of 11 (mixed) RNA 1: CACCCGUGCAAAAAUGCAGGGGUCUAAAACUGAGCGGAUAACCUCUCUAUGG RNA 2: GGGAAUGGAUCCACAUCUACGAAUUCGUACCACUAGAGAGGUAUAUCCGCUCACCGAGAUCGGAAGAGCACACGU
7.92

Name the recorded pKd of the binder listed here: target 1 G13A,C21U (mixed) RNA 1: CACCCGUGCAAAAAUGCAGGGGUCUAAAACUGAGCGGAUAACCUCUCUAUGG RNA 2: GGGAAUGGAUCCACAUCUACGAAUUCGUACUAUAGAGAAGUUAUCCGCUCACCGAGAUCGGAAGAGCACACGU
8.11
